TARGET_UNDER_TEST: Angiotensin II receptor (Rattus norvegicus, UniProt P29089+P25095+P35351)
EXPERIMENT_SUMMARY: Angiotensin II receptor antagonist activity was tested in rat isolated uterus assay using [Asp1,Ile5]ANG II (human angiotensin II) as the standard
Assay type: functional, tissue-based
Entries and their pA2

Identify the measured pA2 of CC[C@H](C)[C@H](NC(=O)[C@@H]1C[C@@H](O)CN1C(=O)[C@@H](NC(=O)[C@H](CCCN=C(N)N)NC(=O)CNC)C(C)C)C(=O)N[C@@H](Cc1c[nH]cn1)C(=O)N1CCC[C@H]1C(=O)N[C@@H](Cc1ccccc1)C(=O)O for Angiotensin II receptor (Rattus norvegicus, UniProt P29089+P25095+P35351). < 5

Identify the measured pA2 of CC[C@H](C)[C@H](NC(=O)[C@H](Cc1ccc(OC)cc1)NC(=O)[C@@H](NC(=O)[C@H](CCCN=C(N)N)NC(=O)[C@H](C)N)C(C)C)C(=O)N[C@@H](Cc1c[nH]cn1)C(=O)N1CCC[C@H]1C(=O)N[C@@H](Cc1ccccc1)C(=O)O for Angiotensin II receptor (Rattus norvegicus, UniProt P29089+P25095+P35351). < 6

Identify the measured pA2 of CC[C@H](C)[C@H](NC(=O)[C@H](Cc1ccccc1)NC(=O)[C@@H](NC(=O)[C@H](CCCN=C(N)N)NC(=O)CNC)C(C)C)C(=O)N[C@@H](Cc1c[nH]cn1)C(=O)N1CCC[C@H]1C(=O)N[C@@H](Cc1ccccc1)C(=O)O for Angiotensin II receptor (Rattus norvegicus, UniProt P29089+P25095+P35351). 7.9

Identify the measured pA2 of CC[C@H](C)[C@H](NC(=O)[C@@H]1CCCN1C(=O)[C@H](Cc1c[nH]cn1)NC(=O)[C@@H](NC(=O)[C@H](Cc1ccc(OC)cc1)NC(=O)[C@@H](NC(=O)[C@H](CCCN=C(N)N)NC(=O)CNC)C(C)C)[C@@H](C)CC)C(=O)O for Angiotensin II receptor (Rattus norvegicus, UniProt P29089+P25095+P35351). 6.6

Identify the measured pA2 of CC[C@H](C)[C@H](NC(=O)[C@H](Cc1ccc(OC)cc1)NC(=O)[C@@H](NC(=O)[C@H](CCCN=C(N)N)NC(=O)[C@@H]1CCCN1)C(C)C)C(=O)N[C@@H](Cc1c[nH]cn1)C(=O)N1CCC[C@H]1C(=O)N[C@@H](Cc1ccccc1)C(=O)O for Angiotensin II receptor (Rattus norvegicus, UniProt P29089+P25095+P35351). < 6

====

TARGET_UNDER_TEST: Angiotensin II receptor (Rattus norvegicus, UniProt P29089+P25095+P35351)
EXPERIMENT_SUMMARY: Angiotensin II receptor antagonist activity was tested in rat isolated uterus assay using [Asp1,Ile5]ANG II (human angiotensin II) as the standard
Format: functional, tissue-based
RESULT_TYPE: pA2

# MOL, pA2
data = [
    ("CC[C@H](C)[C@H](NC(=O)[C@@H](Cc1ccc(O)cc1)NC(=O)[C@@H](NC(=O)[C@H](CCCN=C(N)N)NC(=O)CNC)C(C)C)C(=O)N[C@@H](Cc1c[nH]cn1)C(=O)N1CCC[C@H]1C(=O)N[C@@H](Cc1ccccc1)C(=O)O", "< 6.5"),
]

Attention now turns to another entry.
Identify the measured pA2 of CC[C@H](C)[C@H](NC(=O)[C@@H](Cc1ccccc1)NC(=O)[C@@H](NC(=O)[C@H](CCCN=C(N)N)NC(=O)CNC)C(C)C)C(=O)N[C@@H](Cc1c[nH]cn1)C(=O)N1CCC[C@@H]1C(=O)N[C@@H](Cc1ccccc1)C(=O)O for Angiotensin II receptor (Rattus norvegicus, UniProt P29089+P25095+P35351). < 5.5
